Biological target: T1, human IL-12Rβ2 expressed on cells (human, UniProt Q99665 24-862)
T1 sequence: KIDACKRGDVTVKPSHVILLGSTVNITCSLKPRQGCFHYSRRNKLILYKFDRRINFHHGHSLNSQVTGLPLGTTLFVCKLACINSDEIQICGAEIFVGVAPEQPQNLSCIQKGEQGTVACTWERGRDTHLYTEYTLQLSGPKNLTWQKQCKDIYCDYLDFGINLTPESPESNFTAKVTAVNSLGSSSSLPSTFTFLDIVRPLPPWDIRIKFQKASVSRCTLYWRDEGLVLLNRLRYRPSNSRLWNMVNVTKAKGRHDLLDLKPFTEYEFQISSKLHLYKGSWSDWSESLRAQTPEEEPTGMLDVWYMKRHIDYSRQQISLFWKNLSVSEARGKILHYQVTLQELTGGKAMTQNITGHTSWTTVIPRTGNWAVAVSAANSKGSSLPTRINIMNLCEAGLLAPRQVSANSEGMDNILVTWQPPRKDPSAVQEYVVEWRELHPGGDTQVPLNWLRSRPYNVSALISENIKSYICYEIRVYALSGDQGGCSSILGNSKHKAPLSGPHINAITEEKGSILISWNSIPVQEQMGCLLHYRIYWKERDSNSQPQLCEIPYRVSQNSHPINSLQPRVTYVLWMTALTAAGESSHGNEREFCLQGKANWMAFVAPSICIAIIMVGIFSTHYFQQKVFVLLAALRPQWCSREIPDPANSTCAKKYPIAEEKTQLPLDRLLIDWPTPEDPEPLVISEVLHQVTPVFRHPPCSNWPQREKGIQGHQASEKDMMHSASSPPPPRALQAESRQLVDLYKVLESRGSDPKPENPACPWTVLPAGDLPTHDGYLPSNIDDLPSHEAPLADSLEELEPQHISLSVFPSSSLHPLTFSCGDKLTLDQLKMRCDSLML
Assay: cell-based or functional assay
result_type: % Specific Cell Lysis at 0.025 ug/mL (%)
Give bare numbers, in %.

Provide measured % Specific Cell Lysis at 0.025 ug/mL value, entry: 20421-FcDE (Fc fusion) VHH-Fc chain: QVQLQESGGGLVQPGGSLRLSCAASGFTFSTYAMSWVRQAPGKGLEWVSAVNSGGLSTDYADSVEGRFTISRDDAKNMLFLQMNRLKPEDTARYYCAKYEDCSDYVCDRAGYWGQGTQVTVSSAPELLGGPDVFLFPPKPKDTLMISRTPEVTCVVVDVSHEDPEVKFNWYVDGVEVHNAKTKPREEQYNSTYRVVSVLTVLHQDWLNGKEYKCKVSNKALPAPEEKTISKAKGQPREPQVYTLPPSRDELTKNQVSLTCLVKGFYPSDIAVEWESNGQPENNYKTTPPVLDSDGSFFLYSKLTVDKSRWQQGNVFSCSVMHEALHNHYTQKSLSLSPGK 65.9
